- ASSAY DETAILS: inhibitors of CMV-promoter luciferase reporter, dose response, counter-screen for Pax8 inhibitor project, cell-based, HEK293, luminescence, dry powder (AID 743020);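 also: HEK293 cells stably expressing the CMV luciferase reporter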
- EXPERIMENTAL SETUP: SteadyGlo luminescence, 24 h; series mostly up to 35 µM
Measured potencies and affinities stand elsewhere. Results filed as inconclusive are left out. Activity calls are given as the source filed them.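 The calls were made as follows: active = signal-lowering compounds whose fitted half-maximal concentration is at or below twice the top tested dose in every run; inconclusive = runs disagree, flat 30 to 70% inhibition, or poor curve fit; inactive = the rest.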
MEASUREMENT NAME: activity change, negative = inhibition

>>> result("C[C@@H]1CN([C@@H](C)CO)C(=O)c2cc(NC(=O)Nc3ccc(C(F)(F)F)cc3)ccc2O[C@@H](C)CCCCO[C@@H]1CN(C)Cc1ccc2c(c1)OCO2")
"inactive"
>>> result("O=C(Cc1ccccc1)c1ccccc1C(=O)N1CCCCC1")
"inactive"
>>> result("O=C(c1cc(-c2cccs2)on1)N1CCN(C(c2ccccc2)c2ccccc2)CC1")
"inactive"
>>> result("O=C(Nc1ccc([N+](=O)[O-])cn1)c1cc(-c2cccc(Br)c2)nc2ccccc12")
"inactive"
>>> result("C[C@H](CO)N1C[C@H](C)[C@@H](CN(C)S(=O)(=O)c2ccc(-c3ccccc3)cc2)OCc2cn(nn2)CCCC1=O")
"inactive"
>>> result("C[C@H](O)C#Cc1ccc2c(c1)O[C@@H](CN(C)Cc1ccc(-c3ccccc3)cc1)[C@H](C)CN([C@@H](C)CO)S2(=O)=O")
"inactive"
>>> result("O=C(C[C@H]1C[C@H]2c3cc(NS(=O)(=O)c4ccc(F)cc4)ccc3O[C@H]2[C@H](CO)O1)NCc1ccc(-c2ccccc2)cc1")
"inactive"
>>> result("C[C@H](CO)N1C[C@H](C)[C@H](CN(C)C(=O)[C@H](Cc2ccccc2)N(C)C)OCc2ccccc2-c2c(n(C)c3ccccc23)C1=O")
"inactive"
>>> result("O=C(O)CCCNC(=O)C(c1ccccc1)c1ccccc1")
"inactive"
>>> result("Cc1nn(-c2nc3ccccc3[nH]2)c(=O)c2ccccc12")
"inactive"
>>> result("C[C@@H]1CCCCO[C@H](CN(C)Cc2ccncc2)[C@H](C)CN([C@@H](C)CO)C(=O)c2cc(NC(=O)NC3CCCCC3)ccc2O1")
"inactive"
>>> result("COc1cccc(/C=N/Nc2nc(Nc3ccc([N+](=O)[O-])cc3)nc(N3CCCC3)n2)c1O")
"inactive"
>>> result("C[C@@H]1CCCCO[C@@H](CN(C)C(=O)NC2CCCCC2)[C@H](C)CN([C@@H](C)CO)C(=O)c2cc(NC(=O)Nc3ccc(C(F)(F)F)cc3)ccc2O1")
"inactive"
>>> result("CCN(CC(=O)Nc1c(F)cccc1F)C(=O)c1cc(S(=O)(=O)N(C)C)ccc1N1CCCC1")
"inactive"
>>> result("COc1cccc(-c2ccc([C@H]3[C@@H](CO)N(C(=O)c4ccccn4)[C@H]3C#N)cc2)c1")
"inactive"
>>> result("C[C@@H]1CCCCO[C@H](CN(C)C(=O)NC2CCCCC2)[C@H](C)CN([C@@H](C)CO)C(=O)c2cc(NS(=O)(=O)c3ccc(Cl)cc3)ccc2O1")
"inactive"
>>> result("C[C@@H]1CCCCO[C@H](CN(C)Cc2ccc3c(c2)OCO3)[C@@H](C)CN([C@@H](C)CO)C(=O)c2cc(NS(=O)(=O)c3ccc(Cl)cc3)ccc2O1")
"inactive"
>>> result("C[C@@H]1CCCCO[C@@H](CN(C)C(=O)Nc2cccc3ccccc23)[C@H](C)CN([C@H](C)CO)C(=O)c2cc(NS(=O)(=O)c3ccccc3)ccc2O1")
"inactive"

###

- ASSAY DETAILS: osmotic lysis modulators in infected erythrocytes, primary screen, PSAC antagonist project, cell-based, P. falciparum Indochina, OD700, 3 h (AID 1156)
- EXPERIMENTAL SETUP: higher = more signal, called active from +8 up or from −8 down
Listed here are compounds together with their documented z-score.
MEASUREMENT NAME: z-score

>>> numeric_value("Cc1ccc(N2C(=O)c3ccccc3[C@](C)(C(=O)NCC(F)(F)F)[C@@H]2c2ccc(CO)cc2)nc1")
-0.317
>>> numeric_value("CCCNC(=O)[C@@H]1c2ccccc2C(=O)N(Cc2cc(C(F)(F)F)cc(C(F)(F)F)c2)[C@H]1c1ccc(CO)cc1")
-0.631
>>> numeric_value("COc1ccc(CCNC(=O)[C@@]2(Sc3ccc(C)cc3)CC(=O)N(Cc3ccccc3)[C@@H]2c2ccc(CO)cc2I)cc1")
0.0585
>>> numeric_value("CC(C)[Si](C#C[Si](C(C)C)(C(C)C)C(C)C)(O[C@H](C)c1cn([C@H](C)c2ccccc2)nn1)C(C)C")
-0.926
>>> numeric_value("CCCCCN1CC=CC23O[C@@H]4/C=C\\CCC(C)OC(=O)C4[C@H]2C(=O)N(CCO)[C@@H]3C1=O (stereo partly specified)")
0.944
>>> numeric_value("CCCCCN1CC=CC23O[C@@H]4/C=C\\CCC(C)OC(=O)C4[C@H]2C(=O)N(CCCO)[C@@H]3C1=O (stereo partly specified)")
0.787
>>> numeric_value("CC(C)C(=C=CC[C@H](O)c1ccc(OCCO)cc1)C[C@H](O)COCc1ccccc1")
1.7
>>> numeric_value("COc1ccc(C(=O)Nc2cccc(CN3C(=O)[C@@]4(O[C@@H](CCO)[C@H]([Si](C)(C)c5ccc(OC)cc5)[C@H]4C)c4ccccc43)c2)cc1")
-0.984
>>> numeric_value("C=CCC(OC(C)=O)[C@@H]1[C@@H](N(Cc2ccc(-c3ccccc3)cc2)C(=O)c2ccc(-c3ccccc3)cc2)c2cc(OCCCO)ccc2N1C(=O)c1ccc(-c2ccccc2)cc1 (stereo partly specified)")
-0.181
>>> numeric_value("COCCCN1C(=O)[C@@]2(Cc3ccccc31)c1ccccc1C(=O)N(Cc1ccccc1Cl)[C@H]2c1ccc(CO)cc1")
-0.992
>>> numeric_value("C[N+](C)(C)CCCC[C@@H]1NC(=O)[C@H]2C[C@@H](C(=O)NCCCCCN)[C@@H](c3cccc(OCCO)c3)N2C1=O")
-1.26
>>> numeric_value("COCCOC(=O)N1C(=O)[C@@]2(c3cc(C#CCCO)ccc31)[C@H](c1ccccc1OCCO)N1[C@H](c3ccccc3)[C@H](c3ccccc3)OC(=O)[C@H]1[C@@H]2C(=O)NC[C@H](O)c1ccccc1")
0.673
>>> numeric_value("Cc1ccc(S[C@]2(C(=O)NC3CC3)CC(=O)N(Cc3ccccc3C(F)(F)F)[C@@H]2c2ccc(CO)cc2I)cc1")
0.693
>>> numeric_value("COC(=O)c1c2oc(c1C(=O)OC)C(=O)N[C@@H](C(C)C)Cn1nncc1C1(CCCCC1)NC(=O)N[C@H](CO)CC2")
0.168
>>> numeric_value("CO[C@H]1O[C@H](CO)[C@@H](OC(=O)CCc2ccccc2)[C@@H]2OC(=O)[C@H](Cc3ccccc3)C/C=C/C[C@@H](Cc3ccccc3)C(=O)O[C@@H]12")
-1.06
>>> numeric_value("COc1ccc([Si](C)(C)[C@@H]2[C@@H](CC(=O)N3CCC[C@H]3CO)O[C@]3(C(=O)N(Cc4ccc(I)cc4)c4ccccc43)[C@H]2C)cc1")
-0.7
>>> numeric_value("COc1ccc([Si](C)(C)[C@H]2[C@H](CC(=O)N(CCO)Cc3ccccc3)O[C@@]3(C(=O)N(Cc4ccc(N5CCC5=O)cc4)c4ccccc43)[C@@H]2C)cc1")
0.241
>>> numeric_value("CC(C)(C)OC(=O)CC[C@@]12N=C(c3ccc(OCCCO)cc3)O[C@@H]1c1ccccc1CN(Cc1ccccc1)C2=O")
2.02
>>> numeric_value("CC(=O)OC(C/C=C\\B1OC(C)(C)C(C)(C)O1)c1ccccc1 (stereo unspecified)")
-0.628
>>> numeric_value("CC(C)N1CC=CC23O[C@@H]4/C=C\\CCCOC(=O)C4[C@H]2C(=O)N(CCCO)[C@@H]3C1=O (stereo partly specified)")
1.1
>>> numeric_value("COC(=O)C(CC#Cc1ccc2c(c1)[C@]1(C(=O)N2)[C@H](c2ccccc2OCCO)N2[C@H](c3ccccc3)[C@H](c3ccccc3)OC(=O)[C@H]2[C@@H]1C(=O)N1CCCCCCC1)C(=O)OC")
0.776

###

- ASSAY DETAILS: adipocyte viability effects, profiling panel, cell-based, 3T3-L1 adipocytes, calcein-AM fluorescence, 48 h, basal (AID 1163)
- EXPERIMENTAL SETUP: 3T3-L1 adipocytes viability, higher = more signal
MEASUREMENT NAME: z-score

>>> numeric_value("CC(C)C[C@@H]1NC(=O)[C@@]23C(=O)N[C@@H](Cc4ccccc4)C2[C@H](C)[C@@]2(C)O[C@H]2C3/C=C/C/C=C\\CNC(=O)[C@H](Cc2ccccc2)NC1=O (stereo partly drawn)")
1.14
>>> numeric_value("O=C1c2ccccc2[C@@]2(Cc3ccccc3N(CC(F)(F)F)C2=O)[C@H](c2ccc(CO)cc2)N1Cc1ccccc1C(F)(F)F")
0.559
>>> numeric_value("Cc1ccc(N2C(=O)c3ccccc3[C@](C)(C(=O)NC3CC3)[C@@H]2c2ccc(CO)cc2)nc1")
0.995
>>> numeric_value("CC(C)(C)OC(=O)CC[C@@]12N=C(c3ccc(OCCCO)cc3)O[C@@H]1c1ccccc1N(Cc1ccccc1)C2=O")
1.87
>>> numeric_value("C=CCNC(=O)[C@H]1[C@@H]2C(=O)O[C@@H](c3ccccc3)[C@@H](c3ccccc3)N2[C@@H](c2ccccc2OCCO)[C@]12C(=O)N(C(=O)OCCOC)c1ccc(C#CCCO)cc12")
0.674
>>> numeric_value("CC(C)C[C@@H]1NC(=O)[C@H]2C[C@@H](C(=O)NCCCC[N+](C)(C)C)[C@@H](c3cccc(OCCO)c3)N2C1=O")
0.753
>>> numeric_value("CC(=O)NCCCC[C@@H]1NC(=O)[C@@H]2C[C@H](C(=O)O)[C@H](c3cccc(OCCO)c3)N2C1=O")
0.75
>>> numeric_value("COc1ccc([Si](C)(C)[C@H]2[C@H](CCO)O[C@@]3(C(=O)N(Cc4ccc(N5C(=O)c6cccc7cccc5c67)cc4)c4ccccc43)[C@@H]2C)cc1")
2.06
>>> numeric_value("COc1ccc(C#Cc2ccc3c(c2)[C@]2(C(=O)N3)[C@H](c3ccc(O)cc3)N3[C@H](c4ccccc4)[C@H](c4ccccc4)OC(=O)[C@H]3[C@@H]2C(N)=O)cc1")
1.39
>>> numeric_value("COCCOC(=O)N1C(=O)[C@@]2(c3cc(C#CCNC(N)=O)ccc31)[C@H](C(=O)NC[C@H](O)c1ccccc1)[C@H]1C(=O)O[C@H](c3ccccc3)[C@H](c3ccccc3)N1[C@@H]2c1ccc(O)cc1")
0.539
>>> numeric_value("O=C1O[C@H](c2ccccc2)[C@H](c2ccccc2)N2[C@H]1[C@@H](C(=O)NC[C@H](O)c1ccccc1)[C@]1(C(=O)Nc3ccc(C#CC4(O)CCCCCC4)cc31)[C@H]2c1ccc(O)cc1")
1.43
>>> numeric_value("C=CCNC(=O)[C@H]1[C@@H]2C(=O)O[C@@H](c3ccccc3)[C@@H](c3ccccc3)N2[C@@H](c2ccc(OCCO)cc2)[C@]12C(=O)Nc1ccc(C#CCCO)cc12")
2.12
>>> numeric_value("COCCCNC(=O)[C@@]1(Cc2ccccc2)N=C(c2ccc(OCCCO)cc2)O[C@H]1c1ccccc1N=[N+]=[N-]")
1.95
